Listing of entries alongside the reported EC50.
- Tested on: Human immunodeficiency virus 1
- Experiment description: Antiviral activity against HIV-1 3B infected in human MT4 cells assessed as inhibition of virus-induced cytopathic effect by MTT assay
- Assay type: functional, organism-based
- Test parameters: Human immunodeficiency virus 1, 3B

Answered examples (2):
{"columns": ["Structure as smiles", "Value measured"],
 "data": [
  ["CO/N=C(\\Cl)c1cc(/C(=C\\CCCc2nnc(C)o2)c2cc(C)c3onc(OC)c3c2)cc(C)c1OC", "≥ 7.03 µM"],
  ["CO/N=C(\\F)c1cc(/C(=C\\CCCN2CCOC2=O)c2cc(C)c3onc(OC)c3c2)cc(C)c1OC", "> 26 µM"]
]}

stdin: Tell me reported EC50 for CO/N=C(\F)c1cc(/C(=C\CCCc2nc(C)no2)c2cccc(C#N)c2)cc(C)c1OC , tested with Human immunodeficiency virus 1.
stdout: > 4.04 µM

====

- Experiment description: Selectivity index, ratio of CC50 for cytotoxicity against mock-infected human MT4 cells to EC50 for antiviral activity against HIV-1 3B
- Format: toxicity, cell-based
- Test parameters: read-out: Ratio CC50/EC50
Measured selectivity ratio, listed per entry for reference.

{"columns": ["Structure as smiles", "selectivity ratio"],
 "data": [
  ["Cc1cn([C@H]2C[C@H](N=[N+]=[N-])[C@@H](CO)O2)c(=O)[nH]c1=O", "> 11700"],
  ["CO/N=C(\\F)c1cc(/C(=C\\CCCc2nnc(C)o2)c2ccc(C#N)cc2)cc(C)c1OC", "≤ 1"]
]}

stdin: I am curious: what selectivity ratio value has been reported for CO/N=C(\Cl)c1cc(/C(=C\CCCc2nc(C)no2)c2cccc(C#N)c2)cc(C)c1OC ?
stdout: 41

====

- Experiment description: Cytotoxicity against mock-infected human MT4 cells
- Assay type: cell-based
# reported CC50; entries follow

// below: answered compounds
{"columns": ["Structure as smiles", "Reported metric", "Value measured"],
 "data": [
  ["Nc1ccn([C@H]2CC[C@@H](CO)O2)c(=O)n1", "CC50", "> 94.7 µM"],
  ["Cc1cn([C@H]2C[C@H](N=[N+]=[N-])[C@@H](CO)O2)c(=O)[nH]c1=O", "CC50", "> 7.5 µM"]
]}

stdin: Please give the measured CC50 for this compound: CC(C)Nc1cccnc1N1CCN(C(=O)c2cc3cc(NS(C)(=O)=O)ccc3[nH]2)CC1
stdout: > 3.62 µM

====

- System: Human immunodeficiency virus 1
- Experiment description: Antiviral activity against HIV-1 3B infected in human MT4 cells assessed as inhibition of virus-induced cytopathic effect by MTT assay
- Type: functional, organism-based
- Test parameters: Human immunodeficiency virus 1, 3B
pEC50: −log10 of the molar value.
Reported metric: pEC50

{"columns": ["Structure as smiles", "pEC50"],
 "data": [
  ["CO/N=C(\\Cl)c1cc(/C(=C\\CCCN2CCOC2=O)c2cc(C)c3oc(=O)n(C)c3c2)cc(C)c1OC", "< 5.28"],
  ["CO/N=C(\\F)c1cc(/C(=C\\CCCN2CCOC2=O)c2cc(C)c3oc(=O)n(C)c3c2)cc(C)c1OC", "< 5.12"],
  ["CO/N=C(\\F)c1cc(/C(=C\\CCCc2nnc(C)o2)c2cccc(C#N)c2)cc(C)c1OC", "< 5.96"]
]}

stdin: Request the reported pEC50 associated with CO/N=C(\Cl)c1cc(/C(=C\CCCN2CCOC2=O)c2ccc(C#N)cc2)cc(C)c1OC
stdout: < 5.19
